The measurements presented in this section are drawn from paper PMC6063800.

Examples of sequences with documented MIC, KP follow.
tested on: Klebsiella pneumoniae ATCC 13883; assay: microbe, parasite or virus in culture; assay type: cell-based; details: ATCC 13883, 20 h
No end group written: not given here.

Example cases with answers are listed next.
input-sequence: FLPIVGRLISGIL [temporin-CPb]
target-system: Klebsiella pneumoniae ATCC 13883
MIC, KP: >50 µM
//
input-sequence: SILPTIVSFLSKVF [temporin-1Ga]
target-system: Klebsiella pneumoniae ATCC 13883
MIC, KP: >50 µM
//
input-sequence: FLSAITSILGKFF [temporin-1SPa]
target-system: Klebsiella pneumoniae ATCC 13883
MIC, KP: >50 µM
//
input-sequence: FLPLLASLFSRLF [temporin-1Oc]
target-system: Klebsiella pneumoniae ATCC 13883
MIC, KP: >50 µM

Noted for IPPFIKKVLTTVF [temporin-CPa] : its MIC, KP reads 50 µM
